B1: ISL2 (parent)
chain: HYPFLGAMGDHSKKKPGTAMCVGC

Variants of: B1
Test: protein stability index of a GFP-peptide fusion (GPS, HEK-293T) (PSI 1-6); higher = more stable;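 note: lentivirally expressed fusions sorted by FACS into six bins by GFP to DsRed ratio, PSI derived from sequencing read proportions per bin multiplied by bin number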
Settings: c terminus: a fixed tail appended
measure: protein stability index

In [3]: df
Out[3]:
   mutations                  measure  recordedvalue
0        G9H  protein stability index           3.05
1       C21H  protein stability index           3.04
2        L5T  protein stability index           2.96
3       H11R  protein stability index           2.92
4        Y2M  protein stability index           2.97
5        L5M  protein stability index           3.01
